CC50: recorded values
# protocol-notes: Cytotoxicity against human SF539 cells after 48 hrs by sulforhodamine B assay
# Type: functional
# experimental-context: SF-539, 48 h, read-out: LC50 (the source's name)
I'd appreciate it if you wrote the number followed by its unit.

Nc1c(C(=O)Nc2cccc(C(F)(F)F)c2)sc2nc3c(cc12)CCCCC3	11.3 µM
Nc1c(C(=O)Nc2cccc(C(F)(F)F)c2)sc2nc3c(cc12)CCCCCC3	6.65 µM

Ask: I'd like to know its CC50. The molecule in question is `Nc1c(C(=O)Nc2ccccc2)sc2nc3c(cc12)CCCCC3`
Reply: 94.3 µM

Ask: I'd like to know its CC50. The molecule in question is `Nc1c(C(=O)Nc2ccccc2Cl)sc2nc3c(cc12)CCCCCC3`
Reply: 46.6 µM

Ask: I'd like to know its CC50. The molecule in question is `Cc1cccc(NC(=O)c2sc3nc4c(cc3c2N)CCC4)c1C`
Reply: 72.4 µM

Ask: I'd like to know its CC50. The molecule in question is `Nc1c(C(=O)Nc2ccccc2)sc2nc3c(cc12)CCCCCC3`
Reply: 3.2 µM

Reference for the values: ChEMBL document CHEMBL3769377
